Test system: UACC-62 melanoma
Test: NCI-60 one-dose screen, 48 h
Conditions: 10 µM unless noted
This is part of a sample that, as a whole, favours compounds with a hit. Of some 83,000 tested, about 20% had one in any assay. Calls of active or inactive are those of the source. Rule for the calls: active = growth percent below 10; inactive = the rest.
Field 'call' accepts Yes = active, No = inactive

input: Tell me the recorded outcome of this test for `Cc1ncc(C(=O)Nc2ccc(CN3CCN(C)CC3)c(C(F)(F)F)c2)cc1C#Cc1c(N)ncc2ccc(C#N)cc12` .
output: No

input: Tell me the recorded outcome of this test for `C=C(C)[C@@H]1CC[C@]2(C)[C@H](CC=C3[C@@H]4[C@@H](C)[C@H](C)CC[C@]4(C(N)=O)CC[C@]32C)[C@@]1(C)CCC#N` .
output: Yes

input: Tell me the recorded outcome of this test for `COc1ccc(C(=O)c2nccc3cc(OC)c(OC)cc23)cc1OC` .
output: No

input: Tell me the recorded outcome of this test for `COc1c(B(O)O)cccc1-c1nc2ccc3[nH]ncc3c2c2c1CCC2` .
output: No

input: Tell me the recorded outcome of this test for C=CC1=C(C)C2=NC1=CC1=NC(=CC3=C(C)C4=C(O)C(C(=O)O)C(=C5NC(=C2)C(C)C5CCC(=O)O)C4=N3)C(CC)=C1C (stereo not drawn) .
output: No

input: Tell me the recorded outcome of this test for `C#CCNC(=O)CC[C@@H](C)[C@H]1CC[C@H]2[C@@H]3CC[C@@H]4CC(=O)CC[C@]4(C)[C@H]3CC[C@]12C` .
output: Yes

input: Tell me the recorded outcome of this test for C=CCCC1(C)NC(=O)NC1=O (stereo not drawn) .
output: No

input: Tell me the recorded outcome of this test for `O=C(N=c1n(-c2ccccc2)nc2n1CCN2C1=NCCN1)c1ccc(Cl)cc1` .
output: No

input: Tell me the recorded outcome of this test for `CCCN1CC(c2ccc(OC)c(OC)c2)=C(c2cn(C(=O)OCC)c3ccccc23)C1=O` .
output: No

input: Tell me the recorded outcome of this test for CCCCC1COc2cccc3c2N1C=C/C3=C\C(=O)n1ccc2ccccc21 (stereo not drawn) .
output: No

input: Tell me the recorded outcome of this test for `COc1ccc(/C=C/C=C\C(=O)c2ccc(-n3ccnc3)cc2)cc1` .
output: No

input: Tell me the recorded outcome of this test for `O=C(OCc1ccc2c(Cl)cc(Cl)c(O)c2n1)N1CCNCC1` .
output: No

input: Tell me the recorded outcome of this test for `COc1ccc(OC)c(NC=O)c1` .
output: No

input: Tell me the recorded outcome of this test for `COc1cc2c(cc1OCCCCCOc1ccc(-n3c(C)nc4ccccc4c3=O)cc1)N=C[C@@H]1CCCN1C2=O` .
output: Yes

input: Tell me the recorded outcome of this test for `O=C(CCCSc1nc(-c2ccccc2)cc(-c2ccccc2)n1)NO` .
output: Yes

input: Tell me the recorded outcome of this test for `O=C(NCc1ccccc1)C(Cl)Cl` .
output: No

input: Tell me the recorded outcome of this test for CCCn1ccnc1C(O)c1ccc(OCc2ccccc2)c(OC)c1 (stereo not drawn) .
output: No

input: Tell me the recorded outcome of this test for `COc1cc2c(O)n(CCCN3CCOCC3)c3c4cnc5cccc(c(=O)c3c2cc1OC)c54` .
output: No

input: Tell me the recorded outcome of this test for `Cn1cc(-c2nnc(-c3cn(C)c4ncccc34)s2)c2ccccc21` .
output: No

input: Tell me the recorded outcome of this test for `CC[C@@H]1NC(=O)[C@@H]2CCCCN2C(=O)[C@@H]2CCCN2C(=O)[C@@H](NC(=O)[C@H](Cc2cc(F)cc(F)c2)NC(=O)Nc2ccc(C3CC3)cc2F)[C@H](C)OC(=O)[C@@H]2C[C@@H](C)CN2C1=O` .
output: Yes

input: Tell me the recorded outcome of this test for `Cc1ccc(S(=O)(=O)Nc2ccccc2)cc1N` .
output: No

input: Tell me the recorded outcome of this test for `Oc1cc(Nc2ccnc3cc(Cl)ccc23)c2ncccc2c1` .
output: No

input: Tell me the recorded outcome of this test for `Nc1nc(SCc2cccc([N+](=O)[O-])c2)c2[nH]cnc2n1` .
output: No

input: Tell me the recorded outcome of this test for `CC(=O)Nc1ccc2nc3ccc(NC(C)=O)cc3[n+](-c3ccccc3)c2c1` .
output: No

input: Tell me the recorded outcome of this test for `COc1ncc(-c2ccc3nccc(C#CCCCCC(=O)NO)c3c2)cc1NS(=O)(=O)c1ccc(F)cc1F` .
output: Yes

input: Tell me the recorded outcome of this test for `CC(C)OC(=O)Nc1cc(F)ccc1F` .
output: No

input: Tell me the recorded outcome of this test for COc1ccc2c(c1)C(C)Cc1c(Cl)nc(C)nc1N2C (stereo not drawn) .
output: No

input: Tell me the recorded outcome of this test for O=C1NC(=O)C(Cc2ccc(OCc3ccc(-c4cc(F)c(F)c(F)c4)cc3)cc2)S1 (stereo not drawn) .
output: No

input: Tell me the recorded outcome of this test for `O=C(Nc1ccc(Oc2ccc(F)cc2)c(Cl)c1)c1cnccn1` .
output: No

input: Tell me the recorded outcome of this test for COc1ccc(CC(C#N)c2ccc(Cl)cc2)cc1 (stereo not drawn) .
output: No

input: Tell me the recorded outcome of this test for `C=C(CN=[N+]=[N-])[C@@H]1CC[C@]2(C)[C@H](CC[C@@H]3[C@H]4[C@H]5OC(=O)[C@@]4(CCC5(C)C)CC[C@]32C)[C@@]1(C)CCC#N` .
output: No

input: Tell me the recorded outcome of this test for `O=C1COCCN1c1ccc(Nc2nc(Cl)nc(N3CCOCC3)n2)cc1` .
output: No

input: Tell me the recorded outcome of this test for `CC(C)(C)c1cc(C(=O)Nc2cc3ccccc3cc2C(=O)NCCN)cc(C(C)(C)C)c1` .
output: Yes

input: Tell me the recorded outcome of this test for `C#C[C@]1(O)CC[C@H]2[C@@H]3CC=C4c5nc(Nc6ncccn6)sc5CC[C@]4(C)[C@H]3CC[C@@]21C` .
output: Yes

input: Tell me the recorded outcome of this test for `C=C(C)[C@@H]1CC[C@]2(COCCC#N)CC[C@]3(C)[C@H](CC[C@@H]4[C@@](C)(CCCNCCC#N)[C@H](C(=C)C)CC[C@]43C)[C@@H]12` .
output: No

input: Tell me the recorded outcome of this test for `c1cc2ccc3cc2cc1CNCCN1CCNCc2ccc4ccc(cc4c2)CNCCN(CCNC3)CCNCc2ccc3ccc(cc3c2)CNCC1` .
output: No

input: Tell me the recorded outcome of this test for `COc1ccc(C(C(=O)O)c2ccc(OC)cc2)cc1` .
output: No

input: Tell me the recorded outcome of this test for `C#C[C@]1(O)CC[C@H]2[C@@H]3CC=C4c5nc(N)sc5CC[C@]4(C)[C@H]3CC[C@@]21C` .
output: No
